Tested on: S. aureus (Newman, clinical isolate)
PROTOCOL SUMMARY: MIC, S. aureus Newman
Assay type: cell-based
ASSAY SETUP: Staphylococcus aureus, S. aureus (Newman, clinical isolate), round 1
MEASURED PROPERTY: MIC
Kindly report the value followed by its unit.

Use these answered entries as a reference point.
compound="CC[C@H]1OC(=O)[C@H](C)C(=O)[C@H](C)[C@@H](O[C@@H]2OC(C)CC(N(C)C)C2O)[C@](C)(OC)C[C@@H](C)CN[C@H](C)[C@H]2N(CCCn3cc(-c4cccc(N)c4)nn3)C(=O)O[C@]12C (stereo partly drawn)" measurement_target="S. aureus (Newman, clinical isolate)" measured_property=MIC endpoint_value="2 µg/mL"
compound="CC[C@H]1OC(=O)[C@H](C)C(=O)[C@H](C)[C@@H](O[C@@H]2OC(C)CC(N(C)C)C2O)[C@](C)(OC)C[C@@H](C)CN[C@H](C)[C@H]2N(CCCCCn3cc(-c4cccc(N)c4)nn3)C(=O)O[C@]12C (stereo partly drawn)" measurement_target="S. aureus (Newman, clinical isolate)" measured_property=MIC endpoint_value="2 µg/mL"
compound="CC[C@H]1OC(=O)[C@H](C)C(=O)[C@H](C)[C@@H](O[C@@H]2OC(C)CC(N(C)C)C2O)[C@](C)(OC/C=C/c2cnc3ccccc3c2)C[C@@H](C)CN[C@H](C)[C@H]2NC(=O)O[C@@]21C (stereo partly drawn)" measurement_target="S. aureus (Newman, clinical isolate)" measured_property=MIC endpoint_value="0.25 µg/mL"
compound="CC[C@H]1OC(=O)C(C)(F)C(=O)[C@H](C)[C@@H](O[C@@H]2OC(C)CC(N(C)C)C2O)[C@](C)(OC)C[C@@H](C)CN[C@H](C)[C@H]2N(CCCCn3cc(-c4ccccn4)nn3)C(=O)O[C@]12C (stereo partly drawn)" measurement_target="S. aureus (Newman, clinical isolate)" measured_property=MIC endpoint_value="1 µg/mL"
compound="CC[C@H]1OC(=O)[C@H](C)C(=O)[C@H](C)[C@@H](O[C@@H]2OC(C)CC(N(C)C)C2O)[C@](C)(OC)C[C@@H](C)CN[C@H](C)[C@H]2N(CCCCCn3cc(-c4ccccn4)nn3)C(=O)O[C@]12C (stereo partly drawn)" measurement_target="S. aureus (Newman, clinical isolate)" measured_property=MIC endpoint_value="2 µg/mL"

Exercise: Provide value of MIC for this record tested with S. aureus (Newman, clinical isolate): CC[C@H]1OC(=O)[C@H](C)C(=O)[C@H](C)[C@@H](O[C@@H]2OC(C)CC(N(C)C)C2O)[C@](C)(OC)C[C@@H](C)CN[C@H](C)[C@H]2N(CCCn3cc(-c4ccccn4)nn3)C(=O)O[C@]12C (stereo partly drawn)
Solution: 8 µg/mL
